Test system: NCI-H322M lung
Test: NCI-60 one-dose screen, 48 h (100 = growth as untreated, 0 = no growth, -100 = all killed)
Conditions: 10 µM unless noted
This is part of a sample that, as a whole, favours compounds with a hit. Of some 83,000 tested, about 20% had one in any assay.
# label = Condition met if growth < 70% else Condition not met

[[record]]
molecule = "COc1ccc(/C=N/NC(=O)Cn2nc(Cc3ccc(OC)cc3)c3onc(C)c3c2=O)cc1"
cat = "Condition met"

[[record]]
molecule = "C=C1CC[C@@H]2[C@]3(C)COC(c4cn[nH]c4-c4ccc(F)cc4)O[C@@H]3CC[C@@]2(C)[C@@H]1C/C=C1/C(=O)OCC1O (stereo partly specified)"
cat = "Condition met"

[[record]]
molecule = "COc1ccc(-c2c(Nn3cnnn3)no[n+]2[O-])cc1"
cat = "Condition met"

[[record]]
molecule = "O=C(CCN1C(=O)/C(=C/c2ccc(F)cc2)SC1=S)N1CCOCC1"
cat = "Condition not met"


Now, please, on to the next molecule.
Data request: Please determine if COc1ccc(C2=NN(c3ccccc3)C(c3ccc(OCc4ccccc4)c(OC)c3)C2)cc1OC (stereo unspecified) is below 70% in terms of growth.
Data returned: Condition not met

----------
System: PC-3 prostate
Experiment: NCI-60 one-dose screen, 48 h (100 = growth as untreated, 0 = no growth, -100 = all killed)
Conditions: 10 µM unless noted
Compounds without any hit were thinned out: in the full panel of roughly 83,000, 20% have a hit.
measured attribute: growth (%)
Form entry: value (%) — number only.

Data request: Would you kindly share the measured growth for S=C(Nc1ccccc1)Nc1ccc(OCc2nc3ccccc3[nH]2)cc1 ?
Data returned: 42

Data request: What value of measured growth is listed for CCCCSc1nc(Nc2ccc(S(N)(=O)=O)cc2)c(C#N)c(-c2cc(OC)c(OC)c(OC)c2)n1 ?
Data returned: 16.7

Data request: # input molecule: NS(=O)(=O)c1ccc(N=Nc2c(O)n(CC(=O)Nc3ccccc3Cl)c3ccccc23)cc1 ; wanted: its growth
Data returned: 26.1

Data request: What value of measured growth is listed for COc1ccc(N2N=C(c3ccc4c(c3)OCO4)CC2c2cccc(NC(=O)CCNS(=O)(=O)c3ccc(Cl)cc3)c2)cc1 (configuration not stated) ?
Data returned: 16.5

Data request: Record request: growth value, item O=C(CN1C(=O)/C(=C/c2ccccc2F)SC1=S)N1CCOCC1
Data returned: 95.1

Data request: growth lookup needed for Cc1c(C(=O)NNC(=O)Nc2ccc(Cl)cc2)nnn1-c1ccc(Br)cc1 , thanks.
Data returned: 103

Data request: Fill in the blank: the reported growth of O=C(C1=CNC(=S)NC1c1ccc(O)cc1)c1cc2ccccc2oc1=O (configuration not stated) is ____.
Data returned: 86.7

Data request: Form field: reported growth of CN(C)c1ccnc(CNCCSC2(c3ccc(C(F)(F)F)cc3)c3ccccc3CCc3ccccc32)c1
Data returned: -35.3

Data request: Look up growth: CC12CC[C@@H]3[C@]4(C)COC(c5cn[nH]c5-c5ccc(Cl)cc5)O[C@@H]4CC[C@@]3(C)[C@@H]1CC(C1=CCOC1=O)O2 (some centres not stated)
Data returned: 19.4

Data request: Consider the molecule shown here: O=C(O)Cn1c(O)c(/C=C2/C=c3cc4c(cc3=NC2=O)OCCO4)sc1=S What is its recorded growth?
Data returned: 106

Data request: What growth value was documented for this molecule, N#Cc1c(-c2cccc(Cl)c2Cl)cc(-c2ccc3ccccc3c2)[nH]c1=O ?
Data returned: 44.4

Data request: Name the recorded growth for CN(C)c1ccnc(CNCCSC2(c3ccccc3)c3ccccc3C=Cc3ccccc32)c1 .
Data returned: -23.3
